The origin of these recorded values is ChEMBL document CHEMBL1129989.

Biological target: Cholecystokinin receptor type A (Cavia porcellus, UniProt Q63931)
Sequence (Q63931 whole entry): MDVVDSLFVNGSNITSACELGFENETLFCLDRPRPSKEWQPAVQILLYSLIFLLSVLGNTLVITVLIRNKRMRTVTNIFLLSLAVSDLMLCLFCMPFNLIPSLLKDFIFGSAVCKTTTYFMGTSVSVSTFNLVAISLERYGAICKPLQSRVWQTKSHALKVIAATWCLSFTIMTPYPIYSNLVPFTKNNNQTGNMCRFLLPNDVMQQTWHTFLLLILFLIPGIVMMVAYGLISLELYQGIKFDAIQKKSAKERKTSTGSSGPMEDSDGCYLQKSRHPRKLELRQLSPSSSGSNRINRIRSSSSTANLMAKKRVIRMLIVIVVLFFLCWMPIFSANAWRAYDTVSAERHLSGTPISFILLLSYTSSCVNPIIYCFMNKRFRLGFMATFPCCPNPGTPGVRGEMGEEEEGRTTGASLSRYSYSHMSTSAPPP
*1 amine or outer side, *2 acyl side, *3 side chain or, on linkers, in order; H or OH if unused. Where a SMILES comes first, the peptide text is derived from it. Side-chain parts run from the residue outwards. The star is where a group is joined. NH(4-MeO-phenyl) = COc1ccc(N*)cc1; NH(3-MeOPh) = COc1cccc(N*)c1; Boc = CC(C)(C)OC(=O)*; CO = O=C([*:1])[*:2]
RECORDED_ENDPOINT: IC50 (nM)

COMPOUND	MEASURED_TARGET	RECORDED_ENDPOINT	VALUE_REPORTED
COc1cccc(NC(=O)NCCCC[C@H](NC(=O)[C@H](Cc2c[nH]c3ccccc23)NC(=O)OC(C)(C)C)C(=O)N[C@@H](CC(=O)O)C(=O)N[C@@H](Cc2ccccc2)C(N)=O)c1 (Boc-WK([CO-NH(3-MeOPh)])DF-NH2)	Cholecystokinin receptor type A (Cavia porcellus, UniProt Q63931)	IC50	9.4
COc1ccc(NC(=O)NCCCC[C@H](NC(=O)[C@H](Cc2c[nH]c3ccccc23)NC(=O)OC(C)(C)C)C(=O)N[C@@H](CC(=O)O)C(=O)N[C@@H](Cc2ccccc2)C(N)=O)cc1 (Boc-WK([CO-NH(4-MeO-phenyl)])DF-NH2)	Cholecystokinin receptor type A (Cavia porcellus, UniProt Q63931)	IC50	14
